Source of measurements: ChEMBL document CHEMBL4138050

Molecular target: Cystathionine beta-synthase (Homo sapiens)
Sequence (P35520 whole entry): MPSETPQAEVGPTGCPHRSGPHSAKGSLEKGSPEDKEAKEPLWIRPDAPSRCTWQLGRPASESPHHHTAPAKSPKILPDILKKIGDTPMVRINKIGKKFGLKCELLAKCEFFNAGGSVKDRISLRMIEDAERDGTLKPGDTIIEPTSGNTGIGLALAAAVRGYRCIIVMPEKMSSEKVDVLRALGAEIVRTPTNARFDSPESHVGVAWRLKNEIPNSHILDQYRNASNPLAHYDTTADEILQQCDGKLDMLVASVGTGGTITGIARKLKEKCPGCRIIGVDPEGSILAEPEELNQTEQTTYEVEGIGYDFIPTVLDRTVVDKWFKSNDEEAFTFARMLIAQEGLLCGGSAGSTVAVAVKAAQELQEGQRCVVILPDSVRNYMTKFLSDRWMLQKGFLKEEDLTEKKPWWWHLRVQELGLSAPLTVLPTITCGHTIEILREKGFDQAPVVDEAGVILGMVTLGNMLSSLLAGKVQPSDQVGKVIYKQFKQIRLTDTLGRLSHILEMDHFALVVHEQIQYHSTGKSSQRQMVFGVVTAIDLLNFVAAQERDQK
Assay: Inhibition of full-length GST-fused human CBS using cysteine/homocysteine as substrate assessed as decrease in H2S production preincubated for 3 mins in presence of homocysteine and lead nitrate followed by cysteine addition
experimental_readout: IC50 (µM)

1. NOCC(=O)O	4
2. Cc1cc(O)c2c(=O)c3c(O)cc(O)c4c5c(O)cc(O)c6c(=O)c7c(O)cc(C)c8c1c2c(c34)c(c78)c65	3.1
3. O=c1c(O)c(-c2cc(O)c(O)c(O)c2)oc2cc(O)cc(O)c12	18.8
4. COc1ccc([C@H]2Oc3cc(O)cc(O)c3C(=O)[C@@H]2[C@H]2C(=O)c3c(O)cc(O)cc3O[C@@H]2c2ccc(O)cc2)cc1	9.2
